System: HS 578T breast
Assay: NCI-60 one-dose screen, 48 h
Conditions: 10 µM unless noted
Method: Growth inhibition of the HS 578T human tumor cell line is measured as a screen for anti-cancer activity. Cells are grown in 96 well plates and exposed to the test compound for 48 hours. Compounds are tested at a single concentration, which is 10^-5 M for most compounds. The reported endpoint is percent growth (GI% or GIPRCNT), where numbers from 0 - 100% represent growth inhibition, and numbers from -100% - 0 represent cell death. For example, a value of 40 represents 60% growth inhibition. […]
This is part of a sample that, as a whole, favours compounds with a hit. Of some 83,000 tested, about 20% had one in any assay. Active and inactive are the calls of the source. The calls were made as follows: active = growth percent below 10; inactive = the rest.
The reply should be one of these categories: true = active, false = inactive

These solved cases illustrate the format of a correct answer.
>>> cat("O=S(=O)(O)CCI")
"false"
>>> cat("CCCCN(CCCC)CCCNc1c2c(nc3ccc(Cl)cc13)CCCC2")
"false"
>>> cat("Nc1nc2c(c3cnccc13)C(c1cccc(Br)c1)Cc1cnccc1-2 (stereo not given)")
"false"

Prompt: Recorded test outcome, item `CCOc1nc(-c2ccccc2)cc2c(O)c(C(=O)N/N=C/c3ccccc3O)[nH]c(=O)c12`
Completion: false

Prompt: Recorded test outcome, item `Nc1ccc(N=Nc2ccccc2)c2cc(S(=O)(=O)O)ccc12`
Completion: false

Prompt: Recorded test outcome, item CC(=O)C(CO)C(=O)Nc1ccccc1 (stereo not given)
Completion: false

Prompt: Recorded test outcome, item CCOC(=O)C1=C(C(F)(F)F)NC(=O)NC1CN1C(=O)c2ccccc2C1=O (stereo not given)
Completion: false

Prompt: Recorded test outcome, item `O=C(/C=C/c1c[nH]c2ccccc12)c1cc2ccccc2o1`
Completion: false

Prompt: Recorded test outcome, item `CC[C@H](Nc1ncnc2nc[nH]c12)c1nc2cccc(NCc3ccc(C(=O)NO)nc3)c2c(=O)n1-c1ccccc1`
Completion: false

Prompt: Recorded test outcome, item `CC(=O)NNC(=O)c1sc(NC(C)=O)nc1C`
Completion: false

Prompt: Recorded test outcome, item `CC(C)(C)c1ccc([I+]c2ccc(C(C)(C)C)cc2)cc1`
Completion: false

Prompt: Recorded test outcome, item `COC(=O)[C@H](Cc1cn(C)cn1)NC(=O)[C@H](Cc1c[nH]c2ccccc12)NC(=O)Nc1cc(C(F)(F)F)cc(C(F)(F)F)c1`
Completion: false

Prompt: Recorded test outcome, item `C=C(NC(=O)[C@H](C(C)C)N(C)c1cccc2[nH]ccc12)C(=O)OC`
Completion: false

Prompt: Recorded test outcome, item `COC(=O)c1cc(O)c2cc3c(cc2c1-c1cc(OC)c(OC)c(OC)c1)OCO3`
Completion: true
